System: Tyrosine-protein kinase ABL1 (Homo sapiens), P00519 [Y253F]
setup_conditions: at 1 µM
property_label: inhibition (%)
// units = %; emit number, no label

Lab note: NS(=O)(=O)c1ccc(N/N=C2\C(=O)Nc3ccc(-c4cnco4)cc32)cc1 gave inhibition of 13.4

Notebook: Fc1ccc(-c2ncn(C3CCNCC3)c2-c2ccnc(Oc3ccc(Oc4ccccc4)cc3)n2)cc1 , inhibition read as 2.86

Form field inhibition, entry O=C(Nc1n[nH]c2cc(-c3cc(F)ccc3F)ccc12)C1CC1 : 49.6

For reference, reported inhibition for Cc1ccc(NC(=O)c2ccoc2)cc1-c1ccc(C(=O)NCC2CC2)cc1 stands at -0.92

inhibition reading for CCS(=O)(=O)c1ccc(OC)c(Nc2ncc(-c3ccccc3Cl)o2)c1 : 33.3

Form field inhibition, entry COc1cc(N2CCN(C(C)C)CC2)ccc1Nc1nc(Nc2ccc(F)cc2C(=O)NC[C@@H](O)CO)c2cc[nH]c2n1 : 6.49

The molecule listed as COc1cccc(-n2cnc3c(N/N=C/c4ccncc4)ncnc32)c1 shows inhibition equal to 85.3

For record C#Cc1cccc(Nc2ncnc3ccc(OCCCCNCCS(C)(=O)=O)cc23)c1 the listed inhibition is 24.9

The recorded inhibition for entry FC(F)(F)c1cccc(Nc2nccc(-c3cnn4nc(-c5ccccc5)ccc34)n2)c1 equals 3.96

The molecule identified as Cc1ccc(C(=O)NC2CCC2)cc1-c1ccc(C(=O)NCC2CC2)cc1 registered its inhibition at 0.38

Query COc1cc2ncn(-c3cc(OCCc4ccccc4)c(C(N)=O)s3)c2cc1OC yields inhibition of 9.56

Item: COc1ccc2cc(-c3c(-c4ccncc4)nc(-c4ccc([S+](C)[O-])cc4C)n3C)ccc2c1 (stereo unspecified) | inhibition: 16

Input C[C@@H](Oc1cc(-n2cnc3ccc(OCC4CCN(C)CC4)cc32)sc1C(N)=O)c1ccccc1Cl . Output inhibition: 11

Record NCc1ccc(-n2c(-c3nonc3N)nc3cnccc32)cc1 . Reported inhibition: 2.66

Reported inhibition ( COc1ccc(C2=C(N3CCc4ccccc43)C(=O)NC2=O)cc1 ) = 3.01

Record COc1cc2ncn(-c3cc(OCc4cccs4)c(C(N)=O)s3)c2cc1OC . Reported inhibition: 41.8

====

target_under_test: Serine/threonine-protein kinase SIK2 (Homo sapiens) (UniProt Q9H0K1)
Sequence (Q9H0K1 whole entry, looked up): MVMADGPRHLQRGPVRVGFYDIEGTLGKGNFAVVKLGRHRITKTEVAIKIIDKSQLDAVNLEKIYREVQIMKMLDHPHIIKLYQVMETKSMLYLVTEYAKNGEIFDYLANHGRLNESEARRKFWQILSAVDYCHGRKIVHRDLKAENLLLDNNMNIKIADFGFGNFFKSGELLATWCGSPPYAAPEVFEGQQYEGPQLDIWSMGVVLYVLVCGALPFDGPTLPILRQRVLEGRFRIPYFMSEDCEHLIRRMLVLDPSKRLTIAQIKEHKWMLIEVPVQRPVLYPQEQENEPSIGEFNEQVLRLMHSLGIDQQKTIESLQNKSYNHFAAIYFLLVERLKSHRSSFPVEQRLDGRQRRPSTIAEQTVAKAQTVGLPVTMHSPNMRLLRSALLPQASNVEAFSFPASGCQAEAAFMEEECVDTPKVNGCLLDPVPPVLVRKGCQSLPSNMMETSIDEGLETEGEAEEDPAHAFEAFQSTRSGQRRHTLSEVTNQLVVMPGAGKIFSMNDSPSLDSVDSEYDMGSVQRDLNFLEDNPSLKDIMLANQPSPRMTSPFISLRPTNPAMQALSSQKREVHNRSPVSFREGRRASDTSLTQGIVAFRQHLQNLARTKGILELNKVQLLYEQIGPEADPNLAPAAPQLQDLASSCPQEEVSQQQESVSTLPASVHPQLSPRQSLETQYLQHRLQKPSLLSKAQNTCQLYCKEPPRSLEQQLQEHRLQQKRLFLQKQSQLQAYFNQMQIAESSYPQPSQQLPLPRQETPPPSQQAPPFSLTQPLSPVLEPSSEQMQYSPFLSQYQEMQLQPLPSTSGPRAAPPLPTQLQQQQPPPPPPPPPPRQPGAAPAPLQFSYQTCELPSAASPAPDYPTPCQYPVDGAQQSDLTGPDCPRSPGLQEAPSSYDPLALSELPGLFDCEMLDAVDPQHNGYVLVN
setup_conditions: at 0.1 µM
Description: GSK_PKIS: SNF1LK2 (QIK) mean inhibition at 0.1 uM [Nanosyn]
property_label: inhibition (%)
Could you give me the number in %? Just the number is fine.

Lab note: CCS(=O)(=O)c1ccc(OC)c(Nc2ncc(-c3ccccc3Cl)o2)c1 gave inhibition of 1.64

Field inhibition (entry COc1cccc(-n2cnc3c(N/N=C/c4ccncc4)ncnc32)c1 ) reads 9.07

Per the records, this compound ( Fc1ccc(-c2ncn(CCCN3CCOCC3)c2-c2ccncc2)cc1 ) has inhibition equal to -2.31

Form field inhibition, entry Fc1ccc(-c2ncn(C3CCNCC3)c2-c2ccnc(Oc3ccc(F)c(F)c3)n2)cc1 : 0.78

inhibition reading for O=C1Nc2ccc(I)cc2C1=Cc1cc(Br)c(O)c(Br)c1 : 4.92

// recorded inhibition for COc1cc(Nc2ncc3c(C)nc(-c4cccc(Oc5ccccc5)c4)n3n2)cc(OC)c1OC : 1.91

The reported value for COc1ccc2cc(-c3c(-c4ccncc4)nc(-c4ccc([S+](C)[O-])cc4C)n3C)ccc2c1 (configuration not stated) in terms of inhibition is -6.12

Briefly, inhibition measured for CS(=O)(=O)CCNCc1ccc(-c2ccc3ncnc(Nc4ccc(OCc5ccccc5)c(Br)c4)c3c2)o1 : 4.6

// field: inhibition; key: C[C@@H](Oc1cc(-n2cnc3ccc(OCC4CCN(C)CC4)cc32)sc1C(N)=O)c1ccccc1Cl ; value = 7.32

inhibition recorded for this compound, Fc1ccc(-c2nc3n(c2-c2ccncc2)CCS3)cc1 , is 1.21

Per the record, Clc1ccc(CNc2nccc(-c3cnn4ncccc34)n2)cc1 has inhibition of 4.14

Value of inhibition reported for the compound CN(C)CCCNc1nccc(-c2c(-c3ccc(F)cc3)nn3cc(C(F)(F)F)ccc23)n1 is -1

Memo: COc1ccc(C2=C(N3CCc4ccccc43)C(=O)NC2=O)cc1 , reported inhibition: 6.36

Sure, the documented inhibition for O=C1Nc2ccccc2/C1=C/Nc1ccc(-n2cncn2)cc1 is 3.09

inhibition recorded for this compound, Nc1nccc(-c2c(-c3ccc(F)cc3)ncn2C2CCC(O)CC2)n1 (configuration not stated) , is -0.25

Lab book: inhibition of COc1cccc(/C=N/Nc2ncnc3c2cnn3-c2cccc(OC)c2)c1 noted as 5.87

The measured inhibition associated with O=C1NC(=O)C(c2cccc(Cl)c2)=C1Nc1ccc(Cl)c(C(=O)O)c1 reads 10.7

FC(F)(F)c1cccc(Nc2nccc(-c3cnn4nc(-c5ccccc5)ccc34)n2)c1 yielded inhibition of 2.43

Data point: Cc1ccc(NC(=O)c2ccoc2)cc1-c1ccc(C(=O)NCC2CC2)cc1 ; inhibition = 5.39

The reported value for CCc1ccc(Oc2nccc(-c3c(-c4ccc(F)cc4)ncn3C3CCNCC3)n2)cc1 in terms of inhibition is 3.65

Notebook: CCc1nccc2c1nc(-c1nonc1N)n2CC , inhibition read as -4.39

For reference, reported inhibition for NC(=O)c1cc(-c2ccncc2)cc(-c2ccccc2)c1N stands at 7.44

# inhibition of CN(c1ccc(NC(=O)Nc2c(Cl)cccc2Cl)cc1)c1ccnc(Nc2cccc(CS(C)(=O)=O)c2)n1 = 9.6

Record summary for Fc1ccc(-c2ncn(C3CCNCC3)c2-c2ccnc(Oc3ccc(Oc4ccccc4)cc3)n2)cc1 : reported inhibition = 6.45

Reported inhibition ( C[C@@H](Oc1cc(-n2cnc3ccc(OC4CCN(C)CC4)cc32)sc1C(N)=O)c1ccccc1Cl ) = 6.72

The value of inhibition measured for the compound CCS(=O)(=O)c1ccc(OC)c(Nc2ncc(-c3cccc(-c4ccccc4F)c3)o2)c1 turned out to be -1.84

Memo: NC(=O)c1cc(-c2ccc(F)cc2)cc(-c2ccncc2)c1N , reported inhibition: 7.37
